# Tgt: S1P2 (Homo sapiens)
# Construct: Flag; expressed in transfected cells; host or cells: Chinese hamster ovary (CHO) cells, doxycycline-inducible (CHO-S1P2-FL / CHO-S1PR2 FL)
# Sequence (O95136 whole entry, species assumed): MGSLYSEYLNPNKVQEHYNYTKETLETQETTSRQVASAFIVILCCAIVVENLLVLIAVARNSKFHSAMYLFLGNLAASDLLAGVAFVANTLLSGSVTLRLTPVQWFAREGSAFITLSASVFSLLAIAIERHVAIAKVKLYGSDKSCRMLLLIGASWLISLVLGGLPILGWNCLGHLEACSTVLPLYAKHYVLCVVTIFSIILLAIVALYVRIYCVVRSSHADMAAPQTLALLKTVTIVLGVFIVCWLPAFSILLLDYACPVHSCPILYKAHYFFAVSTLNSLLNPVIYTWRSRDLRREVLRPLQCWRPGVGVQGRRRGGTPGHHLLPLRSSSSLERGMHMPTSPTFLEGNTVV
# Test name: GLISA RhoA activation - antagonist assay
# Assay type: cell-based
# Measurement context: 1 μM compound, CHO-S1P2-FL cells
Here, each record is paired with measured inhibition at 1 µM data.
Property: inhibition at 1 µM (%)

[[record]]
compound = "Cc1cc(C(=O)Cn2cc(Br)ccc2=O)c(C)n1Cc1ccccc1"
observed_measurement = 87

[[record]]
compound = "C=Cc1ccc(=O)n(CC(=O)c2cnn(Cc3ccccc3)c2C)c1"
observed_measurement = 79

[[record]]
compound = "Cc1cc(C(=O)C(C)n2cc(Br)ccc2=O)c(C)n1Cc1ccncc1 (stereo not drawn)"
observed_measurement = 39

[[record]]
compound = "C#Cc1ccc(=O)n(CC(=O)c2cc(C)n(Cc3ccccc3)c2C)c1"
observed_measurement = 69

[[record]]
compound = "Cc1cc(C(=O)C(C)n2cc(Br)ccc2=O)c(C)n1Cc1ccc(F)c(F)c1 (stereo not drawn)"
observed_measurement = 46

[[record]]
compound = "C#Cc1ccc(=O)n(CC(=O)c2cnn(Cc3cccnc3)c2C)c1"
observed_measurement = 69

[[record]]
compound = "Cc1cc(C(=O)C(C)n2cc(Br)ccc2=O)c(C)n1Cc1ccc(S(C)(=O)=O)cc1 (stereo not drawn)"
observed_measurement = 29

[[record]]
compound = "Cc1cc(C(=O)C(C)n2cc(Br)ccc2=O)c(C)n1Cc1cccnc1 (stereo not drawn)"
observed_measurement = 73

[[record]]
compound = "Cc1cc(C(=O)C(C)n2cc(Br)ccc2=O)c(C)n1CC1CCCOC1 (stereo not drawn)"
observed_measurement = 30


* * *

# Tgt: S1P2 (Homo sapiens)
# Construct: Flag; expressed in transfected cells; host or cells: Chinese hamster ovary (CHO) cells, doxycycline-inducible (CHO-S1P2-FL / CHO-S1PR2 FL)
# Test name: GLISA RhoA activation - antagonist assay
# Assay type: cell-based
# Measurement context: CHO-S1P2-FL cells, 1 hour compound incubation, then for 5 min
Structures can show the parent of a compound that is named as a salt.
Property: IC50 (nM)

[[record]]
molecule = "Cc1cc(C(=O)Cn2cc(C(=O)O)ccc2=O)c(C)n1Cc1ccccc1"
property = "IC50"
readout_units = "nM"
relation = ">"
observed_measurement = 10000

[[record]]
molecule = "COc1ccc(=O)n(CC(=O)c2cc(C)n(Cc3ccccc3)c2C)c1"
property = "IC50"
readout_units = "nM"
relation = ">"
observed_measurement = 10000

[[record]]
molecule = "Cc1cc(C(=O)C(C)n2cc(Br)ccc2=O)c(C)n1Cc1cccc(C(=O)O)c1 (centres unmarked)"
property = "IC50"
readout_units = "nM"
relation = "="
observed_measurement = 297

[[record]]
molecule = "CC#Cc1ccc(=O)n(CC(=O)c2cc(C)n(Cc3ccccc3)c2C)c1"
property = "IC50"
readout_units = "nM"
relation = "="
observed_measurement = 194

[[record]]
molecule = "O=c1ccc(Br)cn1Cc1nccc2c1cnn2Cc1ccccc1 [Compound 130, hydrochloride]"
property = "IC50"
readout_units = "nM"
relation = "="
observed_measurement = 140

[[record]]
molecule = "Cc1cc(C(=O)Cn2cc(Br)ccc2=O)c(C)n1Cc1ccccc1"
property = "IC50"
readout_units = "nM"
relation = "="
observed_measurement = 52

[[record]]
molecule = "C=C(C)c1ccc(=O)n(CC(=O)c2cnn(Cc3ccccc3)c2C)c1"
property = "IC50"
readout_units = "nM"
relation = "="
observed_measurement = 181

[[record]]
molecule = "C=Cc1ccc(=O)n(CC(=O)c2nnn(Cc3ccccc3)c2C)c1"
property = "IC50"
readout_units = "nM"
relation = "="
observed_measurement = 65

[[record]]
molecule = "C=Cc1ccc(=O)n(CC(=O)c2c(C)nn(Cc3ccccc3)c2C)c1"
property = "IC50"
readout_units = "nM"
relation = "="
observed_measurement = 92

[[record]]
molecule = "C#Cc1ccc(=O)n(CC(=O)c2cnn(Cc3ccccc3)c2C)n1"
property = "IC50"
readout_units = "nM"
relation = "="
observed_measurement = 200

[[record]]
molecule = "C=Cc1ccc(=O)n(C(C)C(=O)c2cnn(Cc3ccccc3)c2C)n1 (centres unmarked)"
property = "IC50"
readout_units = "nM"
relation = "="
observed_measurement = 130

[[record]]
molecule = "C#Cc1ccc(=O)n(C(C)C(=O)c2cnn(Cc3ccccn3)c2C)c1 (centres unmarked)"
property = "IC50"
readout_units = "nM"
relation = "="
observed_measurement = 100

[[record]]
molecule = "Cc1cc(C(=O)C(C)n2cc(C#N)ccc2=O)c(C)n1Cc1ccccc1 (centres unmarked)"
property = "IC50"
readout_units = "nM"
relation = ">"
observed_measurement = 10000

[[record]]
molecule = "C#Cc1ccc(=O)n(C(C)C(=O)c2cnn(Cc3ccc(F)cc3F)c2C)n1 (centres unmarked)"
property = "IC50"
readout_units = "nM"
relation = "="
observed_measurement = 58

[[record]]
molecule = "C=Cc1ccc(=O)n(CC(=O)c2cnn(Cc3ccccc3)c2C)c1"
property = "IC50"
readout_units = "nM"
relation = "="
observed_measurement = 82

[[record]]
molecule = "C=Cc1ccc(=O)n(CC(=O)c2cnn(Cc3ccccc3)c2C(F)F)c1"
property = "IC50"
readout_units = "nM"
relation = "="
observed_measurement = 107

[[record]]
molecule = "Cc1cc(C(=O)C(Cc2ccccc2)n2cc(C#N)ccc2=O)c(C)n1Cc1ccccc1 (centres unmarked)"
property = "IC50"
readout_units = "nM"
relation = ">"
observed_measurement = 10000

[[record]]
molecule = "Cc1cc(C(=O)Cn2cc(C(C)(C)C)ccc2=O)c(C)n1Cc1ccccc1"
property = "IC50"
readout_units = "nM"
relation = ">"
observed_measurement = 10000

[[record]]
molecule = "Cc1cc(C(=O)C(Cc2ccc(-c3ccccc3)cc2)n2cc(C#N)ccc2=O)c(C)[nH]1 (centres unmarked)"
property = "IC50"
readout_units = "nM"
relation = ">"
observed_measurement = 10000

[[record]]
molecule = "Cc1cc(=O)n(CC(=O)c2cc(C)n(Cc3ccccc3)c2C)cc1C#N"
property = "IC50"
readout_units = "nM"
relation = ">"
observed_measurement = 10000


Source of measurements: patent US11964960B2
